assay-text: in vivo
run-parameters: both, New Zealand White, rabbit, iv, 60 mg/kg, T1/2
measured-endpoint: half-life (h)

molecule | measured-endpoint | measure-unit | obs-value
O=C(NN1C(=O)C2C3C=CC(C4CC34)C2C1=O)c1ccc(C(F)(F)F)cc1 (stereo not shown) [ST-246] | half-life | h | 5.2

====

assay-text: in vivo
run-parameters: male, mouse, po, 100 mg/kg, AUC0-24

compound | AUC(0-t) (µg·h/mL)
O=C(NN1C(=O)C2C3C=CC(C4CC34)C2C1=O)c1ccc(C(F)(F)F)cc1 (stereo not shown) | 343

====

assay-text: in vivo
run-parameters: both, cynomolgus monkey, po, 10 mg/kg, AUCINF—obs
measured-endpoint: AUC(0-inf)

compound | obs-value
O=C(NN1C(=O)C2C3C=CC(C4CC34)C2C1=O)c1ccc(C(F)(F)F)cc1 (stereo not shown) | 11800 ng·h/mL
